test: Compound was evaluated for the cytotoxicity against human ocular lens epithelium (CECH).; format: functional, Lens of camera-type eye
Response field label takes 1 when MNTC is strictly below 200 µM and 0 in all other cases.

>>> classification("CCn1cc(C(=O)O)c(=O)c2cnc(N3CCCC3)nc21")
0
>>> classification("CCC[C@@H]1C[C@@H](C(=O)N[C@@H]([C@H]2O[C@H](SC)[C@H](O)[C@@H](O)[C@H]2O)[C@H](C)Cl)N(C)C1")
0
>>> classification("C[C@H]1c2cccc(O)c2C(=O)C2=C(O)[C@]3(O)C(=O)C(C(N)=O)=C(O)[C@@H](N(C)C)[C@@H]3[C@@H](O)[C@@H]21.O")
1
>>> classification("Cc1c(C(=O)O)c(O)cc2c1C(=O)c1c(O)c([C@@H]3O[C@H](CO)[C@@H](O)[C@H](O)[C@H]3O)c(O)c(O)c1C2=O")
0
>>> classification("CNC(C)C1CCC(N)C(OC2C(N)CC(N)C(OC3OCC(C)(O)C(NC)C3O)C2O)O1.CNC1C(O)C(OC2C(N)CC(N)C(OC3OC(C(C)N)CCC3N)C2O)OCC1(C)O.CNC1C(O)C(OC2C(N)CC(N)C(OC3OC(CN)CCC3N)C2O)OCC1(C)O.O=S(=O)(O)O (stereo not given) [GENTAMICIN MIXTURE]")
0
